- assay_protocol: AUC(0 to t) in Sprague-Dawley rat at 1 mg/kg, iv
- Type: ADME, organism-based
- condition: in vivo
measured_quantity: AUC(0-t)
A bare number is not enough; add the unit after it.

Query: Looking for the measured AUC(0-t) of CNc1nc(Nc2ccc(C)c(N)c2)ncc1C(=O)Nc1cc(NC(=O)c2cccc(C(F)(F)F)c2)ccc1C , can you help?
Response: 636 ng·h/mL

###

- assay_protocol: Antiproliferative activity against human KU812 cells assessed as cell viability after 72 hrs by CellTiter-Glo or CCK-8 assay
- Type: functional
- condition: KU812, 72 h
Record form. Attribute: GI50. Fill in for each entry.
Please give a number only; it is taken to be in nM.

Query: Looking for the measured GI50 of Cc1cn(-c2cc(NC(=O)c3ccc(C)c(Nc4nccc(-c5cccnc5)n4)c3)cc(C(F)(F)F)c2)cn1 , can you help?
Response: 1

Query: Looking for the measured GI50 of Cc1ccc(NC(=O)c2ccc(CN3CCN(C)CC3)cc2)cc1Nc1nccc(-c2cccnc2)n1 , can you help?
Response: 160

Query: Looking for the measured GI50 of CNc1nc(Nc2ccc(C)c(N)c2)ncc1C(=O)Nc1cc(NC(=O)c2cccc(C(F)(F)F)c2)ccc1C , can you help?
Response: 25
